# Test system: Norovirus polymerase (NoVpol, genotype II) (Lordsdale virus, UniProt P54634)
# Sequence (P54634 1190-1699 limits assumed): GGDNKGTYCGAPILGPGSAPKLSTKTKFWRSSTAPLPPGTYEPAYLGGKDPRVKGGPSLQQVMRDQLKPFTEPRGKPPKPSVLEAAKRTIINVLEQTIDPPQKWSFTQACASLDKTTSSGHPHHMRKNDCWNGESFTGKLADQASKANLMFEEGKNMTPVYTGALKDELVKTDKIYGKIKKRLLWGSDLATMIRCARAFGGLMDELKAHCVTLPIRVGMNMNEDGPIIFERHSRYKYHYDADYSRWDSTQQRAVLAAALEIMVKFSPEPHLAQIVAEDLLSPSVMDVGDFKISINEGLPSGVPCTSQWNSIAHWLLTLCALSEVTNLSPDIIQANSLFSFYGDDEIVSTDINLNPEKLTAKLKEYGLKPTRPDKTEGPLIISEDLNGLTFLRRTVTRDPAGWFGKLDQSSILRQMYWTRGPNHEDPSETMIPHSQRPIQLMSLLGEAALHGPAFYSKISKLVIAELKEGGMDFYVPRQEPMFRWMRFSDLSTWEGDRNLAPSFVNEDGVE
# Assay remarks: biochemical
# Recorded conditions: 50 nM recombinant enzyme, 2.5 hours at 30° C.; read-out: IC50
pIC50: −log10 of the molar value.
Quick reference for pIC50 among some compounds

# example entries with known answers
Compound: [N-]=[N+]=N[C@]1(COP(=O)(O)OP(=O)(O)OP(=O)(O)O)O[C@@H](n2ccc(=O)[nH]c2=O)[C@H](O)[C@@H]1O [Compound 264a]
Reading: > 6.00
//
Compound: C[C@]1(O)[C@H](n2ccc(=O)[nH]c2=O)O[C@](F)(COP(=O)(O)OP(=O)(O)OP(=O)(O)O)[C@H]1O [Compound 122a]
Reading: 5.00 to 6.00
//
Compound: C[C@]1(O)[C@H](n2cnc3c(=O)[nH]c(N)nc32)O[C@](F)(COP(=O)(O)OP(=O)(O)OP(=O)(O)O)[C@H]1F [Compound 232a]
Reading: > 6.00
//
Compound: C[C@@]1(O)[C@H](O)[C@@](CF)(COP(=O)(O)OP(=O)(O)OP(=O)(O)O)O[C@H]1n1ccc(N)nc1=O [Compound 354a]
Reading: > 6.00
//
Compound: C=CC[C@@]1(O)[C@H](O)[C@@](CF)(COP(=O)(O)OP(=O)(O)OP(=O)(O)O)O[C@H]1n1ccc(=O)[nH]c1=O [Compound 350a]
Reading: 5.00 to 6.00
//
Compound: C=C[C@]1(COP(=O)(O)OP(=O)(O)OP(=O)(O)O)O[C@@H](n2ccc(N)nc2=O)C(F)(F)[C@@H]1O [Compound 224a]
Reading: 5.00 to 6.00
//
Compound: C#C[C@@]1(O)[C@H](O)[C@@H](COP(=O)(O)OP(=O)(O)OP(=O)(O)O)O[C@H]1n1cnc2c(=O)[nH]c(N)nc21 [Compound 290a]
Reading: > 6.00
//
Compound: N#C[C@@]1(n2ccc(N)nc2=O)O[C@](CF)(COP(=O)(O)OP(=O)(O)OP(=O)(O)O)[C@@H](O)[C@H]1O [Compound 332a]
Reading: > 6.00

Known value: Norovirus polymerase (NoVpol, genotype II) (Lordsdale virus, UniProt P54634) pIC50 of the compound C[C@@]1(Cl)[C@H](O)[C@@](CF)(COP(=O)(O)OP(=O)(O)OP(=O)(O)O)O[C@H]1n1ccc(=O)[nH]c1=O [Compound 306a] equals 4.00 to 5.00

Known value: Norovirus polymerase (NoVpol, genotype II) (Lordsdale virus, UniProt P54634) pIC50 of the compound Nc1ccn([C@@H]2O[C@@](COP(=O)(O)OP(=O)(O)OP(=O)(O)O)(CC(F)F)[C@@H](O)[C@H]2F)c(=O)n1 [Compound 272a] equals 5.00 to 6.00

Known value: Norovirus polymerase (NoVpol, genotype II) (Lordsdale virus, UniProt P54634) pIC50 of the compound C[C@]1(O)[C@H](n2ccc(N)nc2=O)O[C@](F)(COP(=O)(O)OP(=O)(O)OP(=O)(O)O)[C@H]1O [Compound 238a] equals > 6.00

Known value: Norovirus polymerase (NoVpol, genotype II) (Lordsdale virus, UniProt P54634) pIC50 of the compound C=C[C@@]1(O)[C@H](O)[C@@](CF)(COP(=O)(O)OP(=O)(O)OP(=O)(O)O)O[C@H]1n1ccc(=O)[nH]c1=O [Compound 348a] equals > 6.00

Known value: Norovirus polymerase (NoVpol, genotype II) (Lordsdale virus, UniProt P54634) pIC50 of the compound C#C[C@]1(O)[C@H](n2cnc3c(=O)[nH]c(N)nc32)O[C@](F)(COP(=O)(O)OP(=O)(O)OP(=O)(O)O)[C@H]1F [Compound 233a] equals > 6.00

Known value: Norovirus polymerase (NoVpol, genotype II) (Lordsdale virus, UniProt P54634) pIC50 of the compound Nc1ncnc2c1ncn2[C@@H]1O[C@](CF)(COP(=O)(O)OP(=O)(O)OP(=O)(O)O)[C@@H](O)[C@H]1F [Compound 98c] equals > 6.00

Known value: Norovirus polymerase (NoVpol, genotype II) (Lordsdale virus, UniProt P54634) pIC50 of the compound [N-]=[N+]=NC[C@]1(COP(=O)(O)OP(=O)(O)OP(=O)(O)O)O[C@@H](n2cnc3c(N)ncnc32)[C@H](F)[C@@H]1O [Compound 212a] equals 5.00 to 6.00

Known value: Norovirus polymerase (NoVpol, genotype II) (Lordsdale virus, UniProt P54634) pIC50 of the compound C[C@@]1(O)[C@H](O)[C@@](CN=[N+]=[N-])(COP(=O)(O)OP(=O)(O)OP(=O)(O)O)O[C@H]1n1ccc(=O)[nH]c1=O [Compound 346a] equals 5.00 to 6.00

Known value: Norovirus polymerase (NoVpol, genotype II) (Lordsdale virus, UniProt P54634) pIC50 of the compound C[C@@]1(Cl)[C@H](O)[C@@H](COP(=O)(O)OP(=O)(O)OP(=O)(O)O)O[C@H]1n1cnc2c(=O)[nH]c(N)nc21 [Compound 343a] equals > 6.00

Known value: Norovirus polymerase (NoVpol, genotype II) (Lordsdale virus, UniProt P54634) pIC50 of the compound C#C[C@@]1(O)[C@H](O)[C@@](CF)(COP(=O)(O)OP(=O)(O)OP(=O)(O)O)O[C@H]1n1ccc(=O)[nH]c1=O [Compound 219a] equals > 6.00

Known value: Norovirus polymerase (NoVpol, genotype II) (Lordsdale virus, UniProt P54634) pIC50 of the compound Nc1ccn([C@@H]2O[C@@](COP(=O)(O)OP(=O)(O)OP(=O)(O)O)(C(F)F)[C@@H](O)[C@H]2F)c(=O)n1 [Compound 329a] equals 5.00 to 6.00

Known value: Norovirus polymerase (NoVpol, genotype II) (Lordsdale virus, UniProt P54634) pIC50 of the compound C[C@@]1(O)[C@H](O)[C@@](CF)(COP(=O)(O)OP(=O)(O)OP(=O)(O)O)O[C@H]1n1cnc2c(=O)[nH]c(N)nc21 [Compound 216a] equals > 6.00

Known value: Norovirus polymerase (NoVpol, genotype II) (Lordsdale virus, UniProt P54634) pIC50 of the compound C#C[C@]1(F)[C@H](n2cnc3c(=O)[nH]c(N)nc32)O[C@](F)(COP(=O)(O)OP(=O)(O)OP(=O)(O)O)[C@H]1O [Compound 237a] equals > 6.00

Known value: Norovirus polymerase (NoVpol, genotype II) (Lordsdale virus, UniProt P54634) pIC50 of the compound C[C@]1(F)[C@H](n2cnc3c(=O)[nH]c(N)nc32)O[C@](F)(COP(=O)(O)OP(=O)(O)OP(=O)(O)O)[C@H]1O [Compound 214a] equals > 6.00

Known value: Norovirus polymerase (NoVpol, genotype II) (Lordsdale virus, UniProt P54634) pIC50 of the compound O=c1ccn([C@@H]2O[C@](CF)(COP(=O)(O)OP(=O)(O)OP(=O)(O)O)[C@@H](O)[C@]2(O)CF)c(=O)[nH]1 [Compound 353a] equals 5.00 to 6.00

Known value: Norovirus polymerase (NoVpol, genotype II) (Lordsdale virus, UniProt P54634) pIC50 of the compound N#C[C@]1(COP(=O)(O)OP(=O)(O)OP(=O)(O)O)O[C@@H](n2cnc3c(=O)[nH]c(N)nc32)[C@H](F)[C@@H]1O [Compound 34e] equals > 6.00

Known value: Norovirus polymerase (NoVpol, genotype II) (Lordsdale virus, UniProt P54634) pIC50 of the compound C=C[C@]1(COP(=O)(O)OP(=O)(O)OP(=O)(O)O)O[C@@H](n2ccc(N)nc2=O)[C@H](F)[C@@H]1O [Compound 36b] equals 5.00 to 6.00

The measurements presented in this section are drawn from patent US9815864B2.
